Structures can show the parent of a compound that is named as a salt.
MEASURED PROPERTY: IC50

Item: Nc1ncc(-c2ccc(OCC(=O)N3CCCC3)cc2)cc1-c1nc2ccccc2s1 [Example 241] | System: MET (human) (Homo sapiens) | IC50: 1000 to 20000 nM

Item: COCCNC(=O)CN1CCC(n2cc(-c3cnc(N)c(-c4nc5ccccc5s4)c3)cn2)CC1 [Example 172] | System: MET (human) (Homo sapiens) | IC50: 100 to 1000 nM

Item: Nc1ncc(-c2cnn(C3CCNCC3)c2)cc1-c1cc2cc(F)cc(Cl)c2cn1 [Example 47, trihydrochloride salt] | System: MET (human) (Homo sapiens) | IC50: 100 to 1000 nM

Item: COc1nc(-c2cc(-c3cnn(C4CCNCC4)c3)cnc2N)cc2ccccc12 [Example 30, trihydrochloride salt] | System: MET (human) (Homo sapiens) | IC50: 100 to 1000 nM

Item: NC(=O)CCn1cc(-c2cnc(N)c(-c3nc4ccccc4s3)c2)cn1 [Example 297] | System: MET (human) (Homo sapiens) | IC50: 100 to 1000 nM

Item: CC(C(=O)N1CCC(O)CC1)n1cc(-c2cnc(N)c(-c3nc4ccccc4s3)c2)cn1 (centres unmarked) [Example 150] | System: MET (human) (Homo sapiens) | IC50: 100 to 1000 nM

Item: Nc1ncc(-c2cnn(C3CCNCC3)c2)cc1-c1cc2cc(-c3ccccc3)ccc2cn1 [Example 25, tri-hydrochloride salt] | System: MET (human) (Homo sapiens) | IC50: 100 to 1000 nM

Item: CC(C(=O)N(C)C)n1cc(-c2cnc(N)c(-c3nc4ccccc4s3)c2)cn1 (centres unmarked) [Example 148] | System: MET (human) (Homo sapiens) | IC50: 1000 to 20000 nM

* * *

Counter-ions that a name gives are not always drawn.
Observed IC50 for MET (human) (Homo sapiens), reported per entry below.

Item: CC(C(=O)N1CCCCC1)n1cc(-c2cnc(N)c(-c3nc4ccccc4s3)c2)cn1 (stereo not shown) [Example 152] | IC50: 1000 to 20000 nM

Item: Nc1ncc(-c2cnn(C3CCNCC3)c2)cc1-c1cc2ccccc2s1 [Example 104, bishydrochloride] | IC50: ≤ 100 nM

Item: CNC(=O)C(C)n1cc(-c2cnc(N)c(-c3nc4ccccc4s3)c2)cn1 (stereo not shown) [Example 144] | IC50: 1000 to 20000 nM

Item: Nc1ncc(-c2cccc(O)c2)cc1-c1nc2ccccc2s1 [Example 233] | IC50: 1000 to 20000 nM

Item: Nc1ncc(-c2cnn(C3CCNCC3)c2)cc1-c1nc2cccc(Cl)c2s1 [Example 259] | IC50: ≤ 100 nM

Item: Cc1cccc2nc(-c3cc(-c4cnn(C5CCNCC5)c4)cnc3N)sc12 [Example 263] | IC50: ≤ 100 nM

Item: Cn1cc(-c2ccc(F)c3cnc(-c4cc(-c5cnn(C6CCNCC6)c5)cnc4N)cc23)cn1 [Example 52, trihydrochloride] | IC50: ≤ 100 nM

Item: Nc1ncc(-c2cnn(C3CCNCC3)c2)cc1-c1cc2c(Cl)ccc(F)c2cn1 [Example 11, trihydrochloride] | IC50: ≤ 100 nM

Item: COc1ccc2cnc(-c3cc(-c4cnn(C5CCNCC5)c4)cnc3N)cc2c1 [Example 45, trihydrochloride] | IC50: 100 to 1000 nM

Item: Nc1ncc(-c2cnn(C3CCNCC3)c2)cc1-c1cc2c(C(F)(F)F)cccc2cn1 [Example 18, trihydrochloride salt] | IC50: 100 to 1000 nM

Item: Nc1ncc(-c2cnn(C3CCNCC3)c2)cc1-c1nc2c(F)c(F)ccc2s1 [Example 274] | IC50: ≤ 100 nM

Item: Nc1ncc(-c2cnn(C3CCNCC3)c2)cc1-c1cc2ccc(F)cc2cn1 [Example 34] | IC50: 100 to 1000 nM

Item: CN(C)C(=O)[C@@H]1C[C@H](n2cc(-c3cnc(N)c(-c4cc5c(Cl)ccc(F)c5cn4)c3)cn2)CN1 [Example 71] | IC50: ≤ 100 nM

Item: Nc1ncc(-c2cnn(C3CCNCC3)c2)cc1-c1cc2c(-c3ccco3)ccc(F)c2cn1 [Example 48] | IC50: 100 to 1000 nM

Item: Nc1ncc(-c2cnn(C3CCNCC3)c2)cc1-c1nc2ccc(C(F)(F)F)cc2s1 [Example 279] | IC50: 100 to 1000 nM

Item: COc1ccc2nc(-c3cc(-c4cnn(C5CCNCC5)c4)cnc3N)sc2c1 [Example 255] | IC50: 100 to 1000 nM

Item: Cc1ccc(C(F)(F)F)c2nc(-c3cc(-c4cnn(C5CCNCC5)c4)cnc3N)sc12 [Example 280] | IC50: 100 to 1000 nM

Item: Cc1ccc(F)c2cnc(-c3cc(-c4cnn(C5CCNCC5)c4)cnc3N)cc12 [Example 6, trihydrochloride] | IC50: 100 to 1000 nM

Item: COCCN(CCOC)C(=O)c1cccc(-c2cnc(N)c(-c3nc4ccccc4s3)c2)c1 [Example 216] | IC50: > 20000 nM

Item: Nc1ncc(-c2cnn(C3CCNCC3)c2)cc1-c1cc2c(Cl)cccc2cn1 [Example 42, trihydrochloride] | IC50: 100 to 1000 nM

Item: COc1ccc(Cl)c2cc(-c3cc(-c4cnn(C5CCNCC5)c4)cnc3N)ncc12 [Example 12, trihydrochloride] | IC50: 100 to 1000 nM

Item: Nc1ncc(-c2cnn(C3CC4CCC(C3)N4)c2)cc1-c1nc2ccccc2s1 (stereo not shown) [Example 110] | IC50: 100 to 1000 nM

Item: CN1CCN(c2ncc(-c3cnc(N)c(-c4cc5c(Cl)ccc(F)c5cn4)c3)s2)CC1 [Example 60, trihydrochloride] | IC50: 1000 to 20000 nM

Item: N#Cc1cccc2nc(-c3cc(-c4cnn(C5CCNCC5)c4)cnc3N)sc12 [Example 275] | IC50: 100 to 1000 nM

Item: Nc1ncc(-c2cnn(C3CCNCC3)c2)cc1-c1cc2cccc(C(F)(F)F)c2cn1 [Example 19, trihydrochloride salt] | IC50: 100 to 1000 nM

Item: Nc1ncc(-c2cccc(C(=O)N3CCC(O)C3)c2)cc1-c1nc2ccccc2s1 (stereo not shown) [Example 222] | IC50: 1000 to 20000 nM

Item: Nc1ncc(-c2cnn(C3CCNCC3)c2)cc1-c1cc2ccc(O)cc2cn1 [Example 29] | IC50: 100 to 1000 nM

Item: N#Cc1ccc2cnc(-c3cc(-c4cnn(C5CCNCC5)c4)cnc3N)cc2c1 [Example 31, trihydrochloride salt] | IC50: 1000 to 20000 nM

Item: Nc1ncc(-c2cnn(C3CCN(CC(F)(F)F)CC3)c2)cc1-c1nc2ccccc2s1 [Example 115, dihydrochloride] | IC50: 1000 to 20000 nM

Item: Nc1ncc(-c2cnn(C3CCNCC3)c2)cc1-c1cc2cc(F)ccc2cn1 [Example 35] | IC50: 1000 to 20000 nM

Item: Nc1ncc(-c2cnn(C3CCNCC3)c2)cc1-c1cc2c(-c3ccoc3)ccc(F)c2cn1 [Example 49, trihydrochloride] | IC50: ≤ 100 nM
